# Test System: Recombinant human liver GK1 (GST-GK) (Homo sapiens)
# Construct: made in house; host or cells: E. coli
# Sequence (P35557 1-466 isoform P35557-2): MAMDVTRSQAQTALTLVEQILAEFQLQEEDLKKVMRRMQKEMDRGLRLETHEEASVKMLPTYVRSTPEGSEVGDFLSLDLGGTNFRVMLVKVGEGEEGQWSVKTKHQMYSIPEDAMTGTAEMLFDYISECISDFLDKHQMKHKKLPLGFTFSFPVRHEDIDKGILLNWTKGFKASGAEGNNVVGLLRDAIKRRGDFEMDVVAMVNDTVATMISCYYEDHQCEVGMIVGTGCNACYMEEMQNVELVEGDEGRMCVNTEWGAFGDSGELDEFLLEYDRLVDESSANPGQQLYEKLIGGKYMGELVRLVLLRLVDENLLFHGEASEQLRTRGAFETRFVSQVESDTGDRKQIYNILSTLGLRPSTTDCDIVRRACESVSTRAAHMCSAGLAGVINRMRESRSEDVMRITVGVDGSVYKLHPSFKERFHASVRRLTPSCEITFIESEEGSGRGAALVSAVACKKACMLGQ
# Assay Text: In vitro glucokinase activity (G6PDH-coupled NADH assay)
# Assay type: biochemical
# Run Conditions: 30° C., 5 mM D-glucose, 10% DMSO
Could you label it satisfied if measured SC1.5 (concentration of activator that produced a 50% increase in the activity of GK) is 0.7 µM or higher, and not satisfied otherwise?

# count of solved cases: 9
[
  {
    "Compound": "CC(C)(O)Cn1ccc(NC(=O)[C@@H](C[C@H]2C[C@H](C)C2)N2CC(Oc3ccccc3Cl)=CC2=O)n1 (single isomer, unassigned) [Example 216]",
    "Cat": "satisfied"
  },
  {
    "Compound": "CCN(C)C1=CC(=O)N([C@@H](CC2CCCCC2)C(=O)Nc2ccn(CC(C)(C)O)n2)C1 [Example 233]",
    "Cat": "satisfied"
  },
  {
    "Compound": "CC(C)C[C@@H](C(=O)Nc1cnccn1)N1CC(Oc2cccc(CC(C)(C)O)c2)=CC1=O [Example 246]",
    "Cat": "satisfied"
  },
  {
    "Compound": "COc1ccccc1OC1=CC(=O)N([C@@H](CC2CCCO2)C(=O)Nc2ccn(CC(C)(C)O)n2)C1 (some centres unmarked) [Example 178]",
    "Cat": "satisfied"
  },
  {
    "Compound": "CC(C)(O)Cn1ccc(NC(=O)[C@H](CC2CCCCC2)N2CC(Oc3ccccc3)=CC2=O)n1 [Example 213]",
    "Cat": "not satisfied"
  },
  {
    "Compound": "COc1ccccc1OC1=CC(=O)N([C@@H](CC2CCCO2)C(=O)Nc2ccn(CC(C)(C)O)n2)C1 (some centres unmarked) [Example 179]",
    "Cat": "not satisfied"
  },
  {
    "Compound": "O=C(O)c1ccc(NC(=O)[C@H](CC2CCCCC2)N2CC(Oc3c(F)cccc3Cl)=CC2=O)nc1 [Example 70]",
    "Cat": "not satisfied"
  },
  {
    "Compound": "COC1=CC(=O)N([C@@H](CC2CCCC2)C(=O)Nc2cnccn2)C1 [Example 9]",
    "Cat": "satisfied"
  },
  {
    "Compound": "CC(C)(O)Cn1ccc(NC(=O)[C@H](CC2CCCCO2)N2CC(Oc3c(F)cccc3F)=CC2=O)n1 (some centres unmarked) [Example 93]",
    "Cat": "not satisfied"
  }
]

Alright, here's another compound for you.
Task: Could you tell me if the measured SC1.5 (concentration of activator that produced a 50% increase in the activity of GK) of CC(C)(O)Cn1ccc(NC(=O)C(Cc2c(Cl)cccc2Cl)N2CC(Oc3c(F)cccc3F)=CC2=O)n1 (centres unmarked) [Example 225] reaches 0.7 µM or more?
Output: satisfied
